Cited source: patent US20240409645A1

Reported OD (PE binding ELISA) is given for each of the following binders.
Biological target: T1, human IL-2Rγ (common cytokine receptor γ-chain) (human, UniProt P31785 23-262, limits assumed)
T1 construct: Recombinant protein coated on the plate or immobilised on a CM5 chip; also called hu IL-2R; CD132
T1 sequence: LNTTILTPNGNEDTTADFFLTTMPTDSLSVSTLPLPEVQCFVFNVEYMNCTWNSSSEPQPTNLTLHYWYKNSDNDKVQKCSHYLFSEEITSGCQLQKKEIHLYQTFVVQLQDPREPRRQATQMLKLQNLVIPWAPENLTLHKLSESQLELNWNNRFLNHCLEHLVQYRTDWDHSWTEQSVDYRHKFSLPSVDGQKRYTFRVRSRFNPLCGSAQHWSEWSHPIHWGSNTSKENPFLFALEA
Test: PE binding ELISA, periplasmic extract on coated protein
Protocol: In a binding ELISA, human or mouse IL-2Rα, IL-2Rβ and IL-2Rγ proteins were coated directly on maxisorp microtiter plates overnight at 4° C. Free binding sites were blocked using 4% Marvel in PBS for 1 hour. Next, 1:5 dilution of P.E. in 1% Marvel/PBS were added to wells and incubated for 1 hour. […] Binding specificity was determined based on O.D. at 450 nm values compared to negative controls.
Give just the number in OD450 nm; leave the unit off.

[[record]]
binder = "FJ1427_P035MP04E11 (VHH, VHH in periplasmic extract; also called clone nr) VHH: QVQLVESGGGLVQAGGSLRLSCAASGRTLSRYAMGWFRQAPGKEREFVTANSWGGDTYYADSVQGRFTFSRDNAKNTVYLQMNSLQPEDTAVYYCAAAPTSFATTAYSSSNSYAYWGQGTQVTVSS"
metric_name = "OD (PE binding ELISA)"
measured_value = 0.94

[[record]]
binder = "FJ1427_P035MP04H09 (VHH, VHH in periplasmic extract; also called clone nr; 360) VHH: EVQLVESGGGWVQVGESLRLSCAPSGRTFVSGIMGWFRQAPGKEREFVARIILNNNSTRYTDSVKGRFTISRDSAKNTMYLQMNTLRPEDTAVYYCAARDRYGSGNSLSPSAYDYWGQGTQVTVSS"
metric_name = "OD (PE binding ELISA)"
measured_value = 1.87

[[record]]
binder = "FJ1427_P035MP04A04 (VHH, VHH in periplasmic extract; also called clone nr) VHH: QVQLVESGGGLVQAGESLRLSCAASGPTASRVAVAWFRQVPGKEREFVAVVNRPGTMTKYADSVKGRFTISRDSAKNTVYLQMNSLKPEDTAVYYCAADSVPYGRPYYFQTSAGNYDYWGQGTQVTVSS"
metric_name = "OD (PE binding ELISA)"
measured_value = 1.31


I would be grateful if you could share the reported OD (PE binding ELISA) for FJ1427_P035MP04F01 (VHH, VHH in periplasmic extract; also called clone nr) VHH: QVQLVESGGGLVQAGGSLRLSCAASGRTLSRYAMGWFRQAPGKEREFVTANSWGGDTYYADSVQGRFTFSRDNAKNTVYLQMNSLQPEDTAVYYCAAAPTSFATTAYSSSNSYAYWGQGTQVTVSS .
1.66
